Each entry below carries its reported mCrhr1 Luciferase Reporter Assay IC50.
- SUBJECT_OF_TEST: T1, corticotropin-releasing hormone (CRH) peptide (human and mouse (same sequence), not fully specified)
- T1 peptide: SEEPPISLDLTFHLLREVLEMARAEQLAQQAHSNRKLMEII
- MEASUREMENT_PROTOCOL: cell-based or functional assay
# value in nM; strip the unit string

Some binders with known mCrhr1 Luciferase Reporter Assay IC50 results, for comparison:
binder="PR005658 (antibody, human IgG1, kappa, V domains shown, PTM-removal variant of PR004290) VH: EVQLVESGGVLVQPGGSLRLSCAASGFTFSSYWMTWVRQAPGKGLEWVANIKQDGSEKYYVDSVKGRFTISRDNAKNSLFLQMNSLRAEDTAVYYCARTLIFDYWGQGTLVTVSS VL: DIVMTQSPLSLPVTPGEPASISCRSSQSLLHSTGYQSLEWYLQKPGQSPQLLIYLGSNRASGVPDRFSGSGSGTDFTLKISRVEAEDVGIYYCMQTLQTPITFGQGTRLEIKR" measurement=29.7
binder="PR006144 (antibody, human IgG1, kappa, V domains shown, PTM-removal variant of PR004290) VH: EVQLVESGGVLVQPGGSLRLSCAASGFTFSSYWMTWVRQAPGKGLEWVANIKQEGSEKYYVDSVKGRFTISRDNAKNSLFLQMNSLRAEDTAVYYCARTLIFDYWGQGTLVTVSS VL: DIVMTQSPLSLPVTPGEPASISCRSSQSLLHSTGYNPLEWYLQKPGQSPQLLIYLGSNRASGVPDRFSGSGSGTDFTLKISRVEAEDVGIYYCMQTLQTPITFGQGTRLEIKR" measurement=3.6
binder="PR006152 (antibody, human IgG1, kappa, V domains shown, PTM-removal variant of PR004290) VH: EVQLVESGGVLVQPGGSLRLSCAASGFTFSSYWMTWVRQAPGKGLEWVANIKQDSSEKYYVDSVKGRFTISRDNAKNSLFLQMNSLRAEDTAVYYCARTLIFDYWGQGTLVTVSS VL: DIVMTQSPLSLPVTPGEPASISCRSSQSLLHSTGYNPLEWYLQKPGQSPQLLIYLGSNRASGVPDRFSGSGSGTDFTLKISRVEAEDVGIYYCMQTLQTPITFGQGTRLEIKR" measurement=4.4

Now consider a different binder.
## Task Requested field: mCrhr1 Luciferase Reporter Assay IC50. Item: PR005657 (antibody, human IgG1, kappa, V domains shown, PTM-removal variant of PR004290) VH: EVQLVESGGVLVQPGGSLRLSCAASGFTFSSYWMTWVRQAPGKGLEWVANIKQDASEKYYVDSVKGRFTISRDNAKNSLFLQMNSLRAEDTAVYYCARTLIFDYWGQGTLVTVSS VL: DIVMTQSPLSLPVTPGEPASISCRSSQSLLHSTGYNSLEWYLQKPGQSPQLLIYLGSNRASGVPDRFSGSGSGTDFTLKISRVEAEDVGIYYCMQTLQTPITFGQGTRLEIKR
## Result 11.8

Values compiled from patent US20260042834A1.
